The reported measurements were obtained from patent US20240327535A1.

- Target entity: T1, extracellular domain of rhesus monkey BCMA (rhesus monkey, UniProt F7FFA0 1-53)
- T1 construct: extracellular domain; also called RhBCMA
- T1 sequence (F7FFA0 entry or part of it): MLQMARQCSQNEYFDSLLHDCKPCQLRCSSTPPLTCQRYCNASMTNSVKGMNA
- Assay details: Octet BLI; Fab 200 nM
This section presents binders with their documented Kd values.
Report the figure in nM without appending any unit label.

Here is how some binders turned out for Kd.
Binder: AB200-R1a-Fab_VH57 (Fab, V domains shown) VH: QVQLVQSGAEVKKPGSSVKVSCKASGGTYSNYYMHWVRQAPGQGLEWMGATYRGHSETYYNQKFKGRVTITADKSTSTAYMELSSLRSEDTAVYYCARGAIYHGYDVLDNWGQGTLVTVSS VL: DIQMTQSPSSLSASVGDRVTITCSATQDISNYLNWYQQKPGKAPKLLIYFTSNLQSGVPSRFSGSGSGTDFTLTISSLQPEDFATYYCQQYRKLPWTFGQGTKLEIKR
Kd / nM: 12

Binder: AB200-R1a-Fab_VH30 (Fab, V domains shown) VH: QVQLVQSGAEVKKPGSSVKVSCKASGGTYSNYWMHWVRQAPGQGLEWMGATYRGHTDTYYNQKFKGRVTITADKSTSTAYMELSSLRSEDTAVYYCARGAIYHGYDVMDNWGQGTLVTVSS VL: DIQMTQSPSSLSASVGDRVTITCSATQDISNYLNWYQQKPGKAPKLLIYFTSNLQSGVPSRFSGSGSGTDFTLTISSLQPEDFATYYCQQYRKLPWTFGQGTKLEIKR
Kd / nM: 28.2

Note: attention shifts to another entry.
// Input: AB200-R1a-Fab_VH40 (Fab, V domains shown) VH: QVQLVQSGAEVKKPGSSVKVSCKASGGTFSNFWMHWVRQAPGQGLEWMGATYRGHSDTYYNHKFKGRVTITADKSTSTAYMELSSLRSEDTAVYYCARGAIYHGYDVLENWGQGTLVTVSS VL: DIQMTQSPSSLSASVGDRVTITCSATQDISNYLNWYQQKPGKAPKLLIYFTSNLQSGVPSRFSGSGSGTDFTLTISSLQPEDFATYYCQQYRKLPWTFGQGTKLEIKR . Output its Kd only.
45.3
